# System: ZR-75-1 cells
# protocol-summary: Proliferation assay ZR-75-1 (Alamar Blue, 144 h)
# Assay type: cell-based
# stated-conditions: Homo sapiens, ZR-75-1, 144 h, arithmetic mean, read-out: ZR75-1 proliferation assay, EC50 [M] (arithmetic mean)
endpoint-label: EC50

molecule | test-system | reading
CCOc1ccc(Br)cc1S(=O)(=O)NC(=O)c1cc2ccc(N(C)CCOC)cc2o1 [Example 213] | ZR-75-1 cells | 8.48e-06 M
CCCc1ccccc1S(=O)(=O)NC(=O)c1cc2ccc(N(C)C)cc2o1 [Example 52] | ZR-75-1 cells | 1.94e-07 M
CN(C)c1ccc2cc(C(=O)NS(=O)(=O)c3ccccc3)oc2c1 [Example 99] | ZR-75-1 cells | 6.63e-07 M
CCOc1ccccc1S(=O)(=O)NC(=O)c1cc2c(F)cc(N(C)C)cc2o1 [Example 13] | ZR-75-1 cells | 2.28e-08 M
CCN(C)c1ccc2cc(C(=O)NS(=O)(=O)c3ccccc3Cl)oc2c1 [Example 4] | ZR-75-1 cells | 3.25e-06 M
CN(C)c1ccc2cc(C(=O)NS(=O)(=O)c3cc(C(F)(F)F)ccc3NCC(F)F)oc2c1 [Example 165] | ZR-75-1 cells | 9.21e-06 M
CN(C)c1ccc2cc(C(=O)NS(=O)(=O)c3c(Cl)cccc3Cl)oc2c1 [Example 98] | ZR-75-1 cells | 8.17e-07 M
CCOc1ccc(CC)cc1S(=O)(=O)NC(=O)c1cc2ccc(N(C)C)cc2o1 [Example 143] | ZR-75-1 cells | 6.42e-08 M
CC(C)COc1ccccc1S(=O)(=O)NC(=O)c1cc2ccc(N(C)C)cc2o1 [Example 76] | ZR-75-1 cells | 1.95e-07 M
CN(C)c1ccc2cc(C(=O)NS(=O)(=O)c3ccc(F)c(F)c3F)oc2c1 [Example 153] | ZR-75-1 cells | 2.77e-06 M
CCc1cccc(OC)c1S(=O)(=O)NC(=O)c1cc2ccc(N(C)C)cc2o1 [Example 147] | ZR-75-1 cells | 7.83e-08 M
CCCOc1cccc(C)c1S(=O)(=O)NC(=O)c1cc2ccc(N(C)C)cc2o1 [Example 133] | ZR-75-1 cells | 4.88e-07 M
CN(C)c1ccc2cc(C(=O)NS(=O)(=O)c3ccccc3C(=O)O)oc2c1 [Example 36] | ZR-75-1 cells | 1.04e-05 M
CN(c1ccccc1)c1ccc2cc(C(=O)NS(=O)(=O)c3ccccc3)oc2c1 [Example 7] | ZR-75-1 cells | > 2e-05 M
CCOc1cccc(-c2ccccc2)c1S(=O)(=O)NC(=O)c1cc2ccc(N(C)C)cc2o1 [Example 80] | ZR-75-1 cells | 3.29e-07 M
CN(C)c1ccc2cc(C(=O)NS(=O)(=O)c3cc(C#N)ccn3)oc2c1 [Example 29] | ZR-75-1 cells | 1.88e-05 M
CN(C)c1ccc2cc(C(=O)NS(=O)(=O)c3ccc(-c4ccccc4)cc3)oc2c1 [Example 15] | ZR-75-1 cells | 4.28e-06 M

----------
# EC50 annotations
# Test system: LNCAP cells
# protocol-summary: Proliferation assay LNCAP (Alamar Blue, 144 h)
# Assay type: cell-based
# stated-conditions: Homo sapiens, prostate carcinoma, 10 nM R1881, read-out: proliferation assays

chem-smiles | scale-unit | prefix-operator | EC50
CCOc1ccccc1S(=O)(=O)NC(=O)c1cc2ccc(N(C)C)cc2o1 | µM | = | 1.63
CCCOc1ccccc1S(=O)(=O)NC(=O)c1cc2ccc(N(C)C)cc2o1 | µM | > | 20
CN(C)c1ccc2cc(C(=O)NS(=O)(=O)c3ccccc3-c3ccccc3)oc2c1 | µM | = | 4.16
